Each recorded value in this set is attributed to PubChem BioAssay AID330.

# Test system: P388 leukemia ip, CD2F1 mice, survival T/C
# ASSAY_EXPLANATION: NCI In Vivo Anticancer Drug Screen. Data for tumor model P388 Leukemia (intraperitoneal) in CD2F1 (CDF1) mice
# EXPERIMENTAL_CONTEXT: endpoint: median survival time; dose: 1.56 mg/kg/injection; schedule: Q01DX009 (ip); vehicle: water
Toxic doses and inconclusive results are not listed. How the source made its calls: active means survival T/C of 150% or more; inactive means T/C below 125% in these data.
// one of active, inactive, no free text

COMPOUND	ANSWER_LABEL
COc1cc2c(cc1OC)-c1cc3cc(OC)c(OC)cc3c(C)[n+]1CC2 (tested in a mixture with another compound)	inactive
COc1cccc2c1C(=O)c1c(O)c3c(c(O)c1C2=O)CC(O)(C(C)=O)CC3OC1CC(N)C(OC2CC(N)C(O)C(C)O2)C(C)O1 (centres undefined)	active
CCOCC(=O)[C@]1(O)Cc2c(O)c3c(c(O)c2[C@@H](OC2CC(N)C(O)C(C)O2)C1)C(=O)c1c(OC)cccc1C3=O (some centres undefined)	active

Alright, here's another compound for you.
# input I'd appreciate the recorded outcome for "COc1c2c(c(OC)c3c1C(=O)c1ccccc1C3=O)CC=CC2" from this test.
# output inactive

----------
T/C reference
# Test system: P388 leukemia ip, CD2F1 mice, survival T/C
# ASSAY_EXPLANATION: NCI In Vivo Anticancer Drug Screen. Data for tumor model P388 Leukemia (intraperitoneal) in CD2F1 (CDF1) mice
# EXPERIMENTAL_CONTEXT: endpoint: median survival time; dose: 15.0 mg/kg/injection; schedule: Q01DX005 (ip); vehicle: saline with Tween-80; higher = longer survival
Toxic doses and inconclusive results are not listed.

Here is how some molecules turned out for T/C.
MOLECULE	STUDY_SYSTEM	RECORDED_MEASUREMENT
C=CC(=NC(C)(C)C)N(CC)CC	P388 leukemia ip, CD2F1 mice, survival T/C	103 % of control
CCn1c(=O)c(C#N)c2n(CC)c3ccccc3n2c1=O	P388 leukemia ip, CD2F1 mice, survival T/C	100 % of control
O=C(c1ccccc1)c1ccc2n[se]nc2c1	P388 leukemia ip, CD2F1 mice, survival T/C	97 % of control

# input Read the entry "O=S(=O)(F)c1ccc(C[P+](c2ccccc2)(c2ccccc2)c2ccccc2)cc1Cl" and write its reported T/C.
# output 111 % of control

# input Read the entry CC(CN(C)C)C(=O)/C=C/c1ccc(Cl)c(Cl)c1 (centres undefined) and write its reported T/C.
# output 122 % of control

# input Read the entry "Cc1cc2nc(CC(=O)c3cccnc3)c(=O)[nH]c2cc1C" and write its reported T/C.
# output 94 % of control

# input Read the entry "C[n+]1cccc(NC(=O)c2ccccc2)c1" and write its reported T/C.
# output 99 % of control

# input Read the entry "O=C(NC1CCCCC1)OCc1c(COC(=O)NC2CCCCC2)c2cccn2c2c1cnn2-c1ccccc1" and write its reported T/C.
# output 93 % of control

# input Read the entry "CC(=O)OCc1c(-c2ccccc2)c(=O)c1=O" and write its reported T/C.
# output 100 % of control

----------
# Test system: P388 leukemia ip, CD2F1 mice, survival T/C
# ASSAY_EXPLANATION: NCI In Vivo Anticancer Drug Screen. Data for tumor model P388 Leukemia (intraperitoneal) in CD2F1 (CDF1) mice
# EXPERIMENTAL_CONTEXT: endpoint: median survival time; dose: 200.0 mg/kg/injection; schedule: Q01DX005 (ip); vehicle: saline; higher = longer survival
Inconclusive results and toxic doses are left out.
T/C reference

COMPOUND	READOUT_LABEL	RECORDED_MEASUREMENT
NC(=O)NC1CC2CCC1C2 (configuration not stated)	T/C	105 % of control
OC1(O)CCCCN1Cc1ccccc1	T/C	107 % of control
CC(C)(C)C(=O)Oc1ccc(N=C(N)N)cc1	T/C	105 % of control
COC(=O)C1(O)OCC(O)C(O)C1O (configuration not stated)	T/C	100 % of control
CC1OC(OC2C(Oc3cc(O)c4c(c3)OC(c3ccc(O)cc3)CC4=O)OC(CO)C(O)C2O)C(O)C(O)C1O (configuration not stated)	T/C	98 % of control
C1CCC(NC2CCCCC2)CC1	T/C	102 % of control
CC(C)C1OCN2CCCCC12 (configuration not stated)	T/C	116 % of control
O=C1CN(C2CCCCC2)CC(=O)N2CCCCN12	T/C	103 % of control
CCCCNC(=O)N1C2C3CCC(C)(OC3(C)C)C21 (configuration not stated)	T/C	102 % of control
O=[N+]([O-])c1nccn1CC(O)CCN1CCOCC1 (configuration not stated)	T/C	106 % of control

# input Read the entry O=C1OC(C(O)C(O)CO)C(O)C1O (configuration not stated) and write its reported T/C.
# output 95 % of control

# input Read the entry CCOP(=O)(CS(=O)CCC1(C)NC(=O)NC1=O)OCC (configuration not stated) and write its reported T/C.
# output 103 % of control

# input Read the entry "CN1C(C)(C)CC(O)(C#N)CC1(C)C" and write its reported T/C.
# output 103 % of control

# input Read the entry "COc1cc2c(cc1O)CCN[C@H]2C" and write its reported T/C.
# output 108 % of control

# input Read the entry N#CCSCC(NC(=O)c1ccccc1)C(=O)O (configuration not stated) and write its reported T/C.
# output 97 % of control

# input Read the entry O=C(N/N=C/C(O)C(O)C(O)C(O)C(=O)O)c1ccncc1 (configuration not stated) and write its reported T/C.
# output 100 % of control

# input Read the entry CC(=O)NC1C(Nc2ccc(S(=O)(=O)Nc3cc(C)nc(C)n3)cc2)OC(CO)C(O)C1O (configuration not stated) and write its reported T/C.
# output 101 % of control

----------
# Test system: P388 leukemia ip, CD2F1 mice, survival T/C
# ASSAY_EXPLANATION: NCI In Vivo Anticancer Drug Screen. Data for tumor model P388 Leukemia (intraperitoneal) in CD2F1 (CDF1) mice
# EXPERIMENTAL_CONTEXT: endpoint: median survival time; dose: 200.0 mg/kg/injection; schedule: Q01DX001 (ip); vehicle: saline with Tween-80; higher = longer survival
# Experimental: The antitumor activity of compounds was measured in mice bearing transplantable tumors. Survival or tumor size were measured and the results are expressed as the measurement made in the treated group (T) divided by the measurement made in the vehicle treated control group (C). The tumor model used in this assay is P388 Leukemia (intraperitoneal) in CD2F1 (CDF1) mice
Toxic doses and inconclusive results are not listed.
T/C reference

MOLECULE	READOUT_LABEL	RECORDED_MEASUREMENT
C=C1C=C(C)C(=O)O1	T/C	103 % of control

# input Read the entry "COc1cccc2c1c(=O)c1cc([N+](=O)[O-])ccc1n2C" and write its reported T/C.
# output 97 % of control

# input Read the entry CCC(c1ccc(OC)cc1)C(NCC(=O)NNC(=S)NCc1ccccc1)c1ccc(OC)cc1 (configuration not stated) and write its reported T/C.
# output 99 % of control

# input Read the entry "CCOC(=O)c1c2c(c[nH]c1=O)CCCC2" and write its reported T/C.
# output 97 % of control

# input Read the entry "Cn1c(=O)ccc2c(=O)c3cc(Br)ccc3oc21" and write its reported T/C.
# output 107 % of control

# input Read the entry "COc1ccc2c(c1)[C@]13CCN(C)[C@H](C2)[C@@H]1CCC1(C3)OCCO1" and write its reported T/C.
# output 106 % of control

# input Read the entry "O=C(c1ccccc1)c1c(-c2ccccc2)c(=O)n2c(sc3ccccc32)c1C(=O)c1ccccc1" and write its reported T/C.
# output 100 % of control

# input Read the entry "COC(=O)c1c(-c2cc(OC)c(OC)cc2[N+](=O)[O-])c(C=O)n(C)c1C" and write its reported T/C.
# output 99 % of control

# input Read the entry COC(=O)[C@]12C(=O)C=CC(=O)C1CC=CC2C(OC(C)=O)C(COC(C)=O)OC(C)=O (some centres not stated) and write its reported T/C.
# output 100 % of control

# input Read the entry "CC(C)(C)Nc1nc2ccccc2c(=O)o1" and write its reported T/C.
# output 106 % of control

# input Read the entry "Ic1ccc([I+]c2ccc(I)cc2)cc1" and write its reported T/C.
# output 100 % of control

# input Read the entry Cc1cccc(OCC(O)CN2CC2)c1 (configuration not stated) and write its reported T/C.
# output 120 % of control

# input Read the entry COCOC(/C=C/C=C/CCCCOCc1ccccc1)CCC/C=C(\C)CO (configuration not stated) and write its reported T/C.
# output 103 % of control

# input Read the entry "COc1cc(C=Nc2cccc3c2NCCC3)cc(OC)c1OC" and write its reported T/C.
# output 98 % of control

# input Read the entry "S=C(S)n1nc(-c2ccccc2)c(N=Nc2cccc(Cl)c2)c1-c1ccccc1" and write its reported T/C.
# output 91 % of control
